# systemTested: HCRTR2 (Homo sapiens)
# Construct: purchased Promega (in-house HiBiT-GPCR construct library, NanoBRET)
# Sequence (O43614 1-444): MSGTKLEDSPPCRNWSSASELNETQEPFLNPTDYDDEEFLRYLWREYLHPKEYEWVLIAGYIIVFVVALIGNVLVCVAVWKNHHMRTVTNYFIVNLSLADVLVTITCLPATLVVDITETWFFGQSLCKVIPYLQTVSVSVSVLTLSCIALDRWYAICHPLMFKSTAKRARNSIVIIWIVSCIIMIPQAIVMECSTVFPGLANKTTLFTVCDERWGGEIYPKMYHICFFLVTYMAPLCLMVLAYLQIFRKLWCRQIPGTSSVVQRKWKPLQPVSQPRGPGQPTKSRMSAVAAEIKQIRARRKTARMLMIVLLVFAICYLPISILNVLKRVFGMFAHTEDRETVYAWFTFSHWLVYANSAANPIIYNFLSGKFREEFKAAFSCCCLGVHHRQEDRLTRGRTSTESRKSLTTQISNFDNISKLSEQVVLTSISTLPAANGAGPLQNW
# assayOverview: NanoBRET screen HiBiT-HCRTR2 in HEK293
# Assay type: binding
# experimentalParameters: HCRTR2; tracer 1μM

{"columns": ["compound", "NanoBRET Fold Response"],
 "data": [
  ["COc1ccccc1N1CCN(CCCCN2C(=O)c3ccc(CNC(=O)CCOCCNC(=O)c4ccc(CNC(=O)CCc5ccc6n5[B-](F)(F)[N+]5=C(c7ccc[nH]7)C=CC5=C6)cc4)cc3C2=O)CC1", 0.97],
  ["CC(C)N(CC[C@H](c1ccccc1)c1cc(CCNC(=O)CCOCCOCCOCCOCCNC(=O)CCc2ccc3n2[B-](F)(F)[N+]2=C(c4ccc[nH]4)C=CC2=C3)ccc1O)C(C)C", 1.00],
  ["CCCn1c(=O)c2[nH]c(-c3ccc(OCC(=O)NCCNC(=O)CCOCCNC(=O)c4ccc(CNC(=O)CCc5ccc6n5[B-](F)(F)[N+]5=C(c7ccc[nH]7)C=CC5=C6)cc4)cc3)nc2n(CCC)c1=O", 0.97],
  ["Cc1cc2c(s1)Nc1ccccc1N=C2N1CCN(CCCNC(=O)CCOCCOCCOCCOCCNC(=O)CCc2ccc3n2[B-](F)(F)[N+]2=C(c4ccc[nH]4)C=CC2=C3)CC1", 0.97],
  ["CC(C)N(CC[C@H](c1ccccc1)c1cc(CCNC(=O)c2ccc(CNC(=O)CCc3ccc4n3[B-](F)(F)[N+]3=C(c5ccc[nH]5)C=CC3=C4)cc2)ccc1O)C(C)C", 1.06],
  ["O=C(CCc1ccc2n1[B-](F)(F)[N+]1=C(c3ccc[nH]3)C=CC1=C2)NCc1ccc(C(=O)NCCOCCC(=O)N[C@@H]2CC[C@@]3(O)[C@H]4Cc5ccc(O)c6c5[C@@]3(CCN4CC3CC3)[C@H]2O6)cc1 [Naltrexone-3-NB590]", 1.01],
  ["O=C(CCOCCOCCOCCOCCNC(=O)CCc1ccc2n1[B-](F)(F)[N+]1=C(c3ccc[nH]3)C=CC1=C2)NCCCN1CCN(C2=Nc3ccccc3Oc3ccc(Cl)cc32)CC1", 1.16],
  ["O=C(CCc1ccc2n1[B-](F)(F)[N+]1=C(c3ccc[nH]3)C=CC1=C2)NCCOCCOCCNC(=O)OCCOCCN1CCN(C2=Nc3ccccc3Sc3ccccc32)CC1", 0.84],
  ["N#CN=C(NCCCOc1cccc(CN2CCCCC2)c1)NCCNC(=O)CCOCCOCCOCCOCCNC(=O)CCc1ccc2n1[B-](F)(F)[N+]1=C(c3ccc[nH]3)C=CC1=C2", 0.97],
  ["COc1ccccc1N1CCN(CCCCN2C(=O)c3ccc(CNC(=O)CCOCCOCCOCCOCCNC(=O)CCc4ccc5n4[B-](F)(F)[N+]4=C(c6ccc[nH]6)C=CC4=C5)cc3C2=O)CC1", 1.00],
  ["Cc1nc2n(c(=O)c1CCN1CCC(c3noc4cc(F)ccc34)CC1)CCCC2OC(=O)NCCOCCOCCOCCOCCNC(=O)CCc1ccc2n1[B-](F)(F)[N+]1=C(c3ccc[nH]3)C=CC1=C2 (centres unmarked)", 0.96]
]}

====

# systemTested: FPR3 (Homo sapiens)
# Construct: purchased Promega (in-house HiBiT-GPCR construct library, NanoBRET)
# Sequence (P25089 1-353): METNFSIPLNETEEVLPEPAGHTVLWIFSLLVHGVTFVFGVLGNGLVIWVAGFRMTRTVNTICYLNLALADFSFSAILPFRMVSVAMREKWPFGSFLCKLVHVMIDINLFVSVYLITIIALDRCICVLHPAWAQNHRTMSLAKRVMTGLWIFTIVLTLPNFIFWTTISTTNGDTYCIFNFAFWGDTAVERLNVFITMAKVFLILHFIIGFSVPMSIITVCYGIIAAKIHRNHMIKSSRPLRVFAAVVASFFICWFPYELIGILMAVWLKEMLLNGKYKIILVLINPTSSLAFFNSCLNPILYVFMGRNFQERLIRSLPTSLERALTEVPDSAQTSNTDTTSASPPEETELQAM
# assayOverview: NanoBRET screen HiBiT-FPR3 in HEK293
# Assay type: binding
# experimentalParameters: FPR3; tracer 1μM
# Procedure: Each tracer candidate was screened across the entire library of HiBiT-GPCR constructs using NanoBRET as the detection modality. As depicted in Figure 4A, the specificity of interactions was evaluated through decrease in BRET due to competitive displacement of a bound tracer by excess parental compound. Each tracer was analyzed for binding to each HiBiT-GPCR fusion in the absence and in the presence of competing parental compound. […]
Measured NanoBRET Fold Response accompanies every entry in the list below.
assayReadout: NanoBRET Fold Response

{"columns": ["compound", "readoutNumber"],
 "data": [
  ["O=C(CCOCCOCCOCCOCCNC(=O)CCc1ccc2n1[B-](F)(F)[N+]1=C(c3ccc[nH]3)C=CC1=C2)NCCCN1CCN(C2=Nc3ccccc3Oc3ccc(Cl)cc32)CC1 [Loxapine-a-2-NB590]", 1.07],
  ["CC(C)N(CC[C@H](c1ccccc1)c1cc(CCNC(=O)CCOCCOCCOCCOCCNC(=O)CCc2ccc3n2[B-](F)(F)[N+]2=C(c4ccc[nH]4)C=CC2=C3)ccc1O)C(C)C [Tolterodine-2-NB590]", 0.92],
  ["COc1ccccc1N1CCN(CCCCN2C(=O)c3ccc(CNC(=O)CCOCCOCCOCCOCCNC(=O)CCc4ccc5n4[B-](F)(F)[N+]4=C(c6ccc[nH]6)C=CC4=C5)cc3C2=O)CC1 [NAN-190-2-NB590]", 0.74],
  ["O=C(CCc1ccc2n1[B-](F)(F)[N+]1=C(c3ccc[nH]3)C=CC1=C2)NCc1ccc(C(=O)NCCOCCC(=O)N[C@@H]2CC[C@@]3(O)[C@H]4Cc5ccc(O)c6c5[C@@]3(CCN4CC3CC3)[C@H]2O6)cc1 [Naltrexone-3-NB590]", 0.92],
  ["Cc1cc2c(s1)Nc1ccccc1N=C2N1CCN(CCCNC(=O)CCOCCOCCOCCOCCNC(=O)CCc2ccc3n2[B-](F)(F)[N+]2=C(c4ccc[nH]4)C=CC2=C3)CC1 [Olanzapine-a-2-NB590]", 0.96]
]}

====

Measured NanoBRET Fold Response accompanies every entry in the list below.
# systemTested: ADRB1 (Homo sapiens)
# Construct: purchased Promega (in-house HiBiT-GPCR construct library, NanoBRET)
# Sequence (P08588 whole entry): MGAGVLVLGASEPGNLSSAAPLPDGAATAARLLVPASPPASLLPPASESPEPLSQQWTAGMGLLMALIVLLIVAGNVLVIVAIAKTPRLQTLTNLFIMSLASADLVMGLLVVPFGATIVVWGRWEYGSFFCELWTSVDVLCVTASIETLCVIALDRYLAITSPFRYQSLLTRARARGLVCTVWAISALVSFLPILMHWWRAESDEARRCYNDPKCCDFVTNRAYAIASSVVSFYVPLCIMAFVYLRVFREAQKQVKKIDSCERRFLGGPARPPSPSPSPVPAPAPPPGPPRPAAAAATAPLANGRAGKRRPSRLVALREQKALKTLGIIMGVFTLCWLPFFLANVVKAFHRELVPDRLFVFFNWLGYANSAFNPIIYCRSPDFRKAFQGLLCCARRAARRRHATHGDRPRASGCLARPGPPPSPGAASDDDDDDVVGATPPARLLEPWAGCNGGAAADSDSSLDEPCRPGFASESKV
# assayOverview: NanoBRET screen HiBiT-ADRB1 in HEK293
# Type: binding
# experimentalParameters: ADRB1; tracer 0.1μM
assayReadout: NanoBRET Fold Response

{"columns": ["molecule", "assayReadout", "readoutNumber"],
 "data": [
  ["Cc1nc2n(c(=O)c1CCN1CCC(c3noc4cc(F)ccc34)CC1)CCCC2OC(=O)NCCOCCOCCOCCOCCNC(=O)CCc1ccc2n1[B-](F)(F)[N+]1=C(c3ccc[nH]3)C=CC1=C2 (stereo not drawn) [Risperidone-2-NB590]", "NanoBRET Fold Response", 0.98],
  ["O=C(CCc1ccc2n1[B-](F)(F)[N+]1=C(c3ccc[nH]3)C=CC1=C2)NCc1ccc(C(=O)NCCOCCC(=O)N[C@@H]2CC[C@@]3(O)[C@H]4Cc5ccc(O)c6c5[C@@]3(CCN4CC3CC3)[C@H]2O6)cc1 [Naltrexone-3-NB590]", "NanoBRET Fold Response", 1.34],
  ["O=C(CCOCCOCCOCCOCCNC(=O)CCc1ccc2n1[B-](F)(F)[N+]1=C(c3ccc[nH]3)C=CC1=C2)NCCCN1CCN(C2=Nc3ccccc3Oc3ccc(Cl)cc32)CC1 [Loxapine-a-2-NB590]", "NanoBRET Fold Response", 0.97],
  ["O=C(CCc1ccc2n1[B-](F)(F)[N+]1=C(c3ccc[nH]3)C=CC1=C2)NCCOCCOCCNC(=O)OCCOCCN1CCN(C2=Nc3ccccc3Sc3ccccc32)CC1 [Quetiapine-a-2-NB590]", "NanoBRET Fold Response", 1.00],
  ["Cc1cc2c(s1)Nc1ccccc1N=C2N1CCN(CCCNC(=O)CCOCCOCCOCCOCCNC(=O)CCc2ccc3n2[B-](F)(F)[N+]2=C(c4ccc[nH]4)C=CC2=C3)CC1 [Olanzapine-a-2-NB590]", "NanoBRET Fold Response", 1.01],
  ["CC(C)N(CC[C@H](c1ccccc1)c1cc(CCNC(=O)CCOCCOCCOCCOCCNC(=O)CCc2ccc3n2[B-](F)(F)[N+]2=C(c4ccc[nH]4)C=CC2=C3)ccc1O)C(C)C [Tolterodine-2-NB590]", "NanoBRET Fold Response", 1.09],
  ["CCCn1c(=O)c2[nH]c(-c3ccc(OCC(=O)NCCNC(=O)CCOCCNC(=O)c4ccc(CNC(=O)CCc5ccc6n5[B-](F)(F)[N+]5=C(c7ccc[nH]7)C=CC5=C6)cc4)cc3)nc2n(CCC)c1=O [XAC-3-NB590]", "NanoBRET Fold Response", 1.07],
  ["CC(C)N(CC[C@H](c1ccccc1)c1cc(CCNC(=O)c2ccc(CNC(=O)CCc3ccc4n3[B-](F)(F)[N+]3=C(c5ccc[nH]5)C=CC3=C4)cc2)ccc1O)C(C)C [Tolterodine-BZ-NB590]", "NanoBRET Fold Response", 1.02],
  ["N#CN=C(NCCCOc1cccc(CN2CCCCC2)c1)NCCNC(=O)CCOCCOCCOCCOCCNC(=O)CCc1ccc2n1[B-](F)(F)[N+]1=C(c3ccc[nH]3)C=CC1=C2 [Aminopotentidine-2-NB590]", "NanoBRET Fold Response", 1.01]
]}
